# Assay explanation: S. cerevisiae growth inhibition in restrictive medium, OD615, pilot screen, restrictive growth control, yeast lifespan reduction project (AID 706);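 also: modified DeaD lifespan yeast strain shifted to restrictive glucose medium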
# Condition parameters: OD615, 48 h, at 10 µM, stronger effect = higher value
Listed below: growth inhibition values for each entry.

# Compound, growth inhibition / %
rows = [
    ("Oc1ccc(Cl)cc1-c1cc(-c2ccccc2)n[nH]1", -6.9),
    ("Cc1ccccc1Cn1nc(C)c(NC(=O)c2noc3c2CCc2ccccc2-3)c1C", 1.82),
    ("CCOC(=O)N1CCN(C(=O)CSc2nnc(-c3cccs3)o2)CC1", 3.94),
    ("CCn1cc(C(=O)NCC2CCCO2)c(=O)c2cc(S(=O)(=O)N(C)C3CCCCC3)ccc21 (stereo unspecified)", -2.37),
    ("O=C1C2C3C=CC(C3)C2C(=O)N1c1cccc(N2C(=O)C3C4C=CC(C4)C3C2=O)n1 (stereo unspecified)", -11.8),
    ("CCOC(=O)c1c(NC(=O)c2ccc(Br)o2)sc(C)c1CC", -8.3),
    ("CCCN1CCN(CCCNC(=O)Cn2cc3c(n2)CCCC3)CC1", -2.67),
    ("COC(=O)C1=C(C)NC(C)=C(C(=O)OC)C1C1CC=CCC1 (stereo unspecified)", -21.7),
    ("O=C(c1cc2ccccc2oc1=O)N1CCN(c2ccc(N3CCOCC3)nn2)CC1", -7.26),
    ("Cc1ccc(-c2noc(CN3C(C)CCCC3C)n2)cc1 (stereo unspecified)", 4.79),
    ("CC(C)(C)NC(=O)CC(CC(=O)O)c1ccccc1 (stereo unspecified)", 3.69),
]
